Biological target: CDK4/cyclin D3 (Homo sapiens, UniProt P11802)
Construct: purchased Carna Biosciences, Inc. QS S Assist CDK4/Cyclin D3_FP Kit
Sequence (P11802 whole entry): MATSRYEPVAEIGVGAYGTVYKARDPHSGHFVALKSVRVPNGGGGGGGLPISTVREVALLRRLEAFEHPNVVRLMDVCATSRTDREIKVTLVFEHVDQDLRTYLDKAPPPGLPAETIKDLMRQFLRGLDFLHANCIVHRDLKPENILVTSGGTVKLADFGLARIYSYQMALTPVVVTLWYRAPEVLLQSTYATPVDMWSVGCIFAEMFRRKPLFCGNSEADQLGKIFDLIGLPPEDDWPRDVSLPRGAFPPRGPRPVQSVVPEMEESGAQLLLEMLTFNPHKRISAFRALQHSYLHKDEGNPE
Sequence (P30281 whole entry partner): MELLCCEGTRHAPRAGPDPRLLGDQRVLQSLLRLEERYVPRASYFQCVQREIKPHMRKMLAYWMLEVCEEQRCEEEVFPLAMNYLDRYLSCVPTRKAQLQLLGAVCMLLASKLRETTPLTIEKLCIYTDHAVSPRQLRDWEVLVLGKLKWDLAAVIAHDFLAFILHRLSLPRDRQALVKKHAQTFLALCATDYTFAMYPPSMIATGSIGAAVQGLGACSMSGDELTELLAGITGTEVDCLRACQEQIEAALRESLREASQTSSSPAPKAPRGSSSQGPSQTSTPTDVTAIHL
Assay: Human CDK4/cyclin D3 inhibitory activity (QS S Assist CDK4/Cyclin D3_FP Kit, IMAP fluorescence polarization)
Assay type: biochemical
Details: Human CDK4/cyclin D3 inhibitory activity; read-out: CDK4 Activity symbol
pIC50: −log10 of the molar value.
MEASURED_ATTRIBUTE: pIC50

INSERT INTO results (compound, system_name, result) VALUES
  ('CC(=O)c1cc2cnc(Nc3ccc(N4CCNCC4)nn3)nc2c(NC2CCOCC2)n1', 'CDK4/cyclin D3 (Homo sapiens, UniProt P11802)', '> 8.00'),
  ('CC(C)Nc1nc(C(C)O)cc2cnc(Nc3ccc(N4CCC(CCCO)CC4)cn3)nc12 (stereo not drawn)', 'CDK4/cyclin D3 (Homo sapiens, UniProt P11802)', '> 8.00');

Request: Requested read-out: pIC50. Entry: CO[C@H](C)c1cc2cnc(Nc3ccc(C(=O)N4CCNCC4)cn3)nc2c(NC(C)C)n1
Result: > 8.00

Request: How about this compound: C[C@@H](O)c1cc2cnc(Nc3ccc(OCCN(C)C)cn3)nc2c(NC2CCC(C)(C)OC2)n1 (stereo partly drawn)
Result: > 8.00

Request: How about this compound: COC(C)c1cc2cnc(Nc3ccc(N4CCNCC4)cn3)nc2c(NC(C)C)n1 (stereo not drawn)
Result: > 8.00

Request: How about this compound: CC(C)Nc1nc(C(F)F)cc2cnc(Nc3ccc(CN4CC(O)C4)cn3)nc12
Result: ≤ 7.00

Request: How about this compound: CC(C)Nc1nc(C(C)O)cc2cnc(Nc3ccc(N4CCC(N)C(F)C4)nn3)nc12 (stereo not drawn) [Compound 618]
Result: > 8.00

Request: How about this compound: COCC(C)(C)Nc1nc([C@@H](C)O)cc2cnc(Nc3ccc(CN4CCOCC4(C)C)cn3)nc12
Result: 7.00 to 8.00

Request: How about this compound: CC(C)Nc1nc(C(F)F)cc2cnc(Nc3ccc(CN(C)C(N)=O)cn3)nc12
Result: > 8.00

Request: How about this compound: O[C@H]1CC[C@@H](Nc2nc(C(F)F)cc3cnc(Nc4ccc(N5CCNCC5)nn4)nc23)CC1
Result: > 8.00

Request: How about this compound: CO[C@H](C)c1cc2cnc(Nc3ccc(C4CCNCC4)cn3)nc2c(NC(C)C)n1
Result: > 8.00

Request: How about this compound: COCC(C)(C)Nc1nc([C@@H](C)O)cc2cnc(Nc3ccc(CN4CCOCC4)cn3)nc12
Result: 7.00 to 8.00

Request: How about this compound: C[C@@H](O)c1cc2cnc(Nc3ccc(N4CCNCC4)nn3)nc2c(NC2CCOCC2)n1
Result: > 8.00
